Measured values drawn from patent US20240150440A1 for this set.

target: SARS-CoV-2 spike protein on pseudotyped lentivirus (Wuhan Reference Pseudovirus) (SARS-CoV-2, UniProt P0DTC2 14-1273); assay: cell-based or functional assay

BINDER: PP935 MBP-5HVZ-S3b-E11-H6 (VHH, Form: Dimer) VHH: QVQLVESGGGLVQPGGSLRLSCAASGDIYSQSAMAWYRQAPGKEREFVAAITTTGSRSYKDSVKGRFTISRDNAKNTVYLQMNSLKPEDTAVYYCAAFAVRSSSVSDAYDYWGQGTQVTVSS
Pseudovirus neutralization IC50: 34.2 nM

BINDER: PP900 MBP-5HVZ-R5a-F2-H6 (VHH, Form: Dimer) VHH: QVQLVESGGGLVQPGGSLRLSCAASGSISSIEAMSWFRQAPGKQREGVATMASGGDTSYADSVKGRFTISRDNAKNTVYLQMNSLKPEDTAVYYCAAQTYRPDTWGRYTFWGQGTQVTVSS
Pseudovirus neutralization IC50: 29.6 nM

BINDER: PP1097 MBP-5HVZ-PAPA-RN-5-H6 (VHH) VHH: QVQLVESGGGLVQPGGSLRLSCAASGSSFRILAMHWYRQAPGKNREWVAVITSNGNTYYADSVKGRFTISRDNAKNTVYLQMNSLKPEDTAVYYCNADTLDLDDGATYNYWGQGTQVTVSS
Pseudovirus neutralization IC50: 27.3 nM

BINDER: PP1149 MBP-5HVZ-PAPA-R5a-E5-H6 (VHH, Form: Dimer) VHH: QVQLVESGGGLVQPGGSLRLSCAASGYDFDILRMAWFRQAPGKEREMVAAITSAESVNYEDSVKGRFTISRDNAKNTVYLQMNSLKPEDTAVYYCATYDYTDDYGYASWGQGTQVTVSS
Pseudovirus neutralization IC50: 37.3 nM

BINDER: PP1107 MBP-5HVZ-PAPA-RN-22-H6 (VHH, Form: Dimer) VHH: QVQLVESGGGLVQPGGSLRLSCAASGSISEINLLHWFRQAPGKQREWVATMTSGGSTDYADSVKGRFTISRDNAKNTVYLQMNSLKPEDTAVYYCAADEFTKYGHGRYWGQGTQVTVSS
Pseudovirus neutralization IC50: 32.9 nM

BINDER: PP1133 MBP-4B0F-PAPA-R2d-A6-H6 (VHH, Form: Heptamer) VHH: QVQLVESGGGLVQPGGSLRLSCAASGSGASIGAMHWFRQAPGKGREWVASITSAGNTYYGDSVKGRFTISRDNAKNTVYLQMNSLKPEDTAVYYCNALAGANYESQWEEYNYWGQGTQVTVSS
Pseudovirus neutralization IC50: 186 nM
